- experimental-details: Inhibition of recombinant Aedes aegypti RecLab N-terminal Trx-fused/His6-tagged 3-hydroxykynurenine transaminase H360M mutant expressed in Escherichia coli Rosetta 2 (DE3) assessed as reduction in conversion of 3-hydroxy kynurenine to xanthurenic-acid using 3-D,L hydroxy kynurenine as substrate preincubated with PLP cofactor and enzyme and 30 mins later incubated with 3-D,L-HK and measured after 5 mins by microplate reader assay
endpoint: IC50 (µM)

- chemical-string: "O=C(O)CCc1nc(-c2ccco2)no1"
  units: "µM"
  IC50: 84

I: O=C(O)CCc1nc(-c2ccc(Cl)c(Cl)c2)no1
II: O=C(O)CCCc1nc(-c2ccc(Cl)cc2)no1
Prompt: Which has the higher IC50, I or II ? Kindly give the label for the entry you pick.
Completion: II

----------
- experimental-details: Inhibition of recombinant Aedes aegypti RecLab N-terminal Trx-fused/His6-tagged 3-hydroxykynurenine transaminase H360M mutant expressed in Escherichia coli Rosetta 2 (DE3) assessed as reduction in conversion of 3-hydroxy kynurenine to xanthurenic-acid using 3-D,L hydroxy kynurenine as substrate preincubated with PLP cofactor and enzyme and 30 mins later incubated with 3-D,L-HK and measured after 5 mins by microplate reader assay
endpoint: IC50 (µM)

Here's what some known entries look like.
- chemical-string: "O=C(O)CCc1nc(-c2ccc(F)cc2)no1"
  units: "µM"
  IC50: 124
- chemical-string: "COc1ccc(-c2noc(CCC(=O)O)n2)cc1"
  units: "µM"
  IC50: 35
- chemical-string: "O=C(O)CCc1nc(-c2ccccc2)no1"
  units: "µM"
  IC50: 139
- chemical-string: "O=C(O)CCc1nc(-c2ccc([N+](=O)[O-])cc2)no1"
  units: "µM"
  IC50: 76

P: Cc1ccc(-c2noc(CCCC(=O)O)n2)cc1
Q: O=C(O)CCCc1nc(-c2ccc(I)cc2)no1
R: COc1cccc(-c2noc(CCC(=O)O)n2)c1
S: Cc1ccccc1-c1noc(CCC(=O)O)n1
T: O=C(O)CCc1nc(-c2cccc(Br)c2)no1
Prompt: Order the items by recorded IC50; the first position goes to the largest value. In your reply, arrange the labels in the requested order.
Completion: S, R, P, T, Q
(S: 339 µM, R: 157 µM, P: 88 µM, T: 61 µM, Q: 42 µM)

a: Cc1cccc(-c2noc(CCCC(=O)O)n2)c1
b: O=C(O)CCc1nc(-c2ccc3c(c2)OCO3)no1
c: O=C(O)CCc1nc(-c2ccc(Br)cc2)no1
Prompt: Ascending sort, IC50. In your reply, arrange the labels in the requested order.
Completion: a, b, c

----------
- experimental-details: Inhibition of recombinant Aedes aegypti RecLab N-terminal Trx-fused/His6-tagged 3-hydroxykynurenine transaminase H360M mutant expressed in Escherichia coli Rosetta 2 (DE3) assessed as reduction in conversion of 3-hydroxy kynurenine to xanthurenic-acid using 3-D,L hydroxy kynurenine as substrate preincubated with PLP cofactor and enzyme and 30 mins later incubated with 3-D,L-HK and measured after 5 mins by microplate reader assay
pIC50: −log10 of the molar value.
endpoint: pIC50

Here's what some known entries look like.
- chemical-string: "O=C(O)CCc1nc(-c2ccccc2Cl)no1"
  pIC50: 4.11
- chemical-string: "O=C(O)CCc1nc(-c2cccs2)no1"
  pIC50: 4.17
- chemical-string: "O=C(O)CCc1nc(-c2ccc(Cl)cc2)no1"
  pIC50: 4.07
- chemical-string: "O=C(O)CCCc1nc(-c2cccc3ccccc23)no1"
  pIC50: 4.20
- chemical-string: "O=C(O)CCc1nc(-c2ccccc2F)no1"
  pIC50: 3.94
- chemical-string: "Cc1ccc(-c2noc(CCC(=O)O)n2)cc1"
  pIC50: 4.14
- chemical-string: "Cc1cccc(-c2noc(CCC(=O)O)n2)c1"
  pIC50: 3.96
- chemical-string: "O=C(O)CCCc1nc(-c2ccccc2)no1"
  pIC50: 4.14

I: O=C(O)CCCc1nc(-c2ccc(C(F)(F)F)cc2)no1
II: O=C(O)CCc1nc(-c2ccc(C(F)(F)F)cc2)no1
Prompt: Hi there, can you help? I need to know whether I or II has lower measured pIC50. Kindly give the label for the entry you pick.
Completion: I
(I: 4.15, II: 4.38)

----------
- experimental-details: Inhibition of recombinant Aedes aegypti RecLab N-terminal Trx-fused/His6-tagged 3-hydroxykynurenine transaminase H360M mutant expressed in Escherichia coli Rosetta 2 (DE3) assessed as reduction in conversion of 3-hydroxy kynurenine to xanthurenic-acid using 3-D,L hydroxy kynurenine as substrate preincubated with PLP cofactor and enzyme and 30 mins later incubated with 3-D,L-HK and measured after 5 mins by microplate reader assay
pIC50: −log10 of the molar value.
endpoint: pIC50

Here's what some known entries look like.
- chemical-string: "COc1ccc(-c2noc(CCCC(=O)O)n2)cc1"
  recorded-result: 4.00
- chemical-string: "O=C(O)CCCc1nc(-c2ccc3c(c2)OCO3)no1"
  recorded-result: 4.06

I: O=C(O)CCCc1nc(-c2ccc(Cl)c(Cl)c2)no1
II: O=C(O)CCCc1nc(-c2ccc(Br)cc2)no1
Prompt: Hi there, can you help? I need to know whether I or II has lower measured pIC50. Kindly give the label for the entry you pick.
Completion: II
